- Tested on: human LDL receptor gene promoter coupled to firefly luciferase reporter gene in Hep-G2 cell line
- TEST: In vitro determination of LDL receptor induction using the luciferase assay
- Type: cell-based
- CONDITION_SUMMARY: 0.15 μM, luminescence, DMSO control=100%
Give LDL receptor induction (% of control) for every item shown.
Answers are plain numbers, in %.

CN1CCN(c2cc(NCc3ccccn3)c(S(=O)(=O)N(C)c3ccccc3)cc2S(=O)(=O)N(C)c2ccccc2)CC1 [Example 10]: 144

Look up LDL receptor induction (% of control) for the entries below, preserving their order.
1. CN1CCN(c2cc(NCCCc3ccccc3)c(S(=O)(=O)N3CCCC3)cc2S(=O)(=O)N2CCCC2)CC1 [Example 26]
2. CCN(CCN(C)C)c1cc(N2CCN(c3ccccc3)CC2)c(S(=O)(=O)NCCCOC)cc1S(=O)(=O)NCCCOC [Example 96]
3. CN1CCN(c2cc(NCc3ccccc3)c(S(=O)(=O)N(C)c3ccccc3)cc2S(=O)(=O)N(C)c2ccccc2)CC1 [Example 9]
4. CN(c1ccccc1)S(=O)(=O)c1cc(S(=O)(=O)N(C)c2ccccc2)c(N2CCNCC2)cc1NCc1ccccn1 [Example 46]
5. CCN(CCN(C)C)c1cc(NCCCCc2ccccc2)c(S(=O)(=O)N2CCCCC2)cc1S(=O)(=O)N1CCCCC1 [Example 70]
6. CN1CCN(c2cc(N3CCN(C)CC3)c(S(=O)(=O)N(C)Cc3ccccc3)cc2S(=O)(=O)N(C)Cc2ccccc2)CC1 [Example 3]

**A:**
1: 146; 2: 138; 3: 244; 4: 152; 5: 194; 6: 184
